Recorded values, source PubChem BioAssay (NCI).

# Test system: SNB-75 CNS
# test details: NCI-60 one-dose screen, 48 h
# measurement setup: 10 µM unless noted
This is part of a sample that, as a whole, favours compounds with a hit. Of some 83,000 tested, about 20% had one in any assay. Activity calls are given as the source filed them. The calls were made as follows: active = growth percent below 10; inactive = the rest.
Outcome codes: active, inactive

[[record]]
molecule = "O=C(/C=C/c1ccccc1Br)c1cccc(OCCCCOc2cccc(C(=O)/C=C/c3ccccc3Br)c2)c1"
qualitative_label = "inactive"

[[record]]
molecule = "COc1ccc2c(c1)N(Cc1ccc(Cl)cc1)CCC2N1CCCC1=O (stereo not given)"
qualitative_label = "inactive"

[[record]]
molecule = "COc1ccccc1/C=C/C(=O)CCC(=O)O"
qualitative_label = "inactive"

[[record]]
molecule = "CC(C)c1nc2ccccc2n1CC(=O)N/N=C/c1cccc(O)c1"
qualitative_label = "inactive"

[[record]]
molecule = "Cc1ccc(C(=O)CC(=O)C(F)(F)C(F)(F)C(F)(F)F)s1"
qualitative_label = "inactive"

[[record]]
molecule = "CC1CCCN(CCCCOc2ccc(-c3ccc(C#N)cc3)cc2)C1 (stereo not given)"
qualitative_label = "inactive"

[[record]]
molecule = "COC(=O)[C@@H](Cc1c[nH]c2ccccc12)NC(=O)/C=C/c1ccccc1"
qualitative_label = "inactive"

[[record]]
molecule = "CN(C)c1ccc(/C=C\\c2cccc[n+]2C)cc1"
qualitative_label = "inactive"

[[record]]
molecule = "O=C(CCCCCCN1CC(=O)N2[C@@H](c3ccc(Cl)c(Cl)c3)c3[nH]c4ccccc4c3C[C@H]2C1=O)NO"
qualitative_label = "active"

[[record]]
molecule = "CCOC(=O)C1=C(C)NC(=S)NC1c1ccccc1 (stereo not given)"
qualitative_label = "inactive"

[[record]]
molecule = "S=C(Nc1ccc(Cl)cc1)Nc1ccc(Cl)cc1 (tested in a mixture with another compound)"
qualitative_label = "inactive"

[[record]]
molecule = "CCN(CC)CCCCCCCCNc1c2ccc(Cl)cc2nc2ccc(OC)cc12"
qualitative_label = "active"

[[record]]
molecule = "CCCCSc1ncnc2c1ncn2C1CCCCO1 (stereo not given)"
qualitative_label = "inactive"

[[record]]
molecule = "CC(C)=CC[C@@H]1CC2(CC=C(C)C)C(=O)C(OC3(C(=O)c4ccccc4)C(=O)C4(CC=C(C)C)C[C@@H](CC=C(C)C)C(C)(C)C(CC=C(C)C)(C4=O)C3=O)(C(=O)c3ccccc3)C(=O)C(CC=C(C)C)(C2=O)C1(C)C (stereo not given in full)"
qualitative_label = "inactive"

[[record]]
molecule = "CCCCCCCCN(CCCCCCCC)C(=O)CCl"
qualitative_label = "inactive"

[[record]]
molecule = "CCOC(=O)CCN(CCC(=O)OCC)c1ccccc1"
qualitative_label = "inactive"

[[record]]
molecule = "Cc1ccc(C)c(NC(=O)c2sc3c(=O)[nH]cnc3c2C)c1"
qualitative_label = "inactive"

[[record]]
molecule = "CN(C)CCCn1c(=O)c2cc([N+](=O)[O-])ccc2c2cnc3[nH]ccc3c21"
qualitative_label = "inactive"

[[record]]
molecule = "C=C(c1ccc(C(=O)NCCCn2ccnc2)cc1)c1cc2c(cc1C)C(C)(C)CCC2(C)C"
qualitative_label = "inactive"

[[record]]
molecule = "O=C(Nc1cccc(C2=NCCN2)c1)c1ccc(N=Nc2ccc(C(=O)Nc3cccc(C4=NCCN4)c3)cc2)cc1"
qualitative_label = "inactive"


---

# System: NCI-H322M lung
# test details: NCI-60 one-dose screen, 48 h (100 = growth as untreated, 0 = no growth, -100 = all killed)
# measurement setup: 10 µM unless noted
# Procedure: Growth inhibition of the NCI-H322M human Non-Small Cell Lung tumor cell line is measured as a screen for anti-cancer activity. Cells are grown in 96 well plates and exposed to the test compound for 48 hours. Compounds are tested at a single concentration, which is 10^-5 M for most compounds. The reported endpoint is percent growth (GI% or GIPRCNT), where numbers from 0 - 100% represent growth inhibition, and numbers from -100% - 0 represent cell death. […]
This is part of a sample that, as a whole, favours compounds with a hit. Of some 83,000 tested, about 20% had one in any assay.
observed property: growth (%)

[[record]]
compound = "Cc1c2c(cc3c1[nH]c1ccccc13)C=NCC2"
unit_name = "%"
test_value = 99.7

[[record]]
compound = "Nc1c(N)c2ccccc2c2ccccc12"
unit_name = "%"
test_value = 115

[[record]]
compound = "COc1cc(C2C(C#N)=C(N)Oc3cc4c(cc32)OCO4)cc2c1OCO2 (centres undefined)"
unit_name = "%"
test_value = 44.8

[[record]]
compound = "N#Cc1ccc(-c2ccc(-c3cccs3)o2)cc1F"
unit_name = "%"
test_value = 83.3

[[record]]
compound = "Nc1ccc(C2=NNC(=O)Cc3cc4c(cc32)OCCO4)cc1Cl"
unit_name = "%"
test_value = 61.1

[[record]]
compound = "C=C(C)[C@@H]1CC[C@]2(C(=O)NS(=O)(=O)c3ccccc3)CC[C@]3(C)[C@H](CC[C@@H]4[C@@]5(C)CC[C@H](OC(=O)NS(=O)(=O)c6ccccc6)C(C)(C)[C@@H]5CC[C@]43C)[C@@H]12"
unit_name = "%"
test_value = 34.1

[[record]]
compound = "CNC1=C([N+](=O)[O-])C(c2ccccc2O)C(C#N)=C(c2cccs2)O1 (centres undefined)"
unit_name = "%"
test_value = 98.6

[[record]]
compound = "C=C1C[C@@]2(C)C(CC[C@]3(C)C2CC=C2C4CC(C)(C)C[C@@H](OC(=O)/C(C)=C\\C)[C@]4(C(=O)O)CC[C@]23C)C(C)(C)C1=O (some centres undefined)"
unit_name = "%"
test_value = 46.7

[[record]]
compound = "N=c1nc(N2CCCCC2)cc(N)n1O"
unit_name = "%"
test_value = 126


---

# Tested on: NCI-H460 lung
# test details: NCI-60 one-dose screen, 48 h
# measurement setup: 10 µM unless noted
About 83,000 compounds went through this panel and 20% of them were active in at least one assay; those are over-represented in the sample as a whole. Activity calls are given as the source filed them. How the source made its calls: active means growth percent below 10; inactive means the rest.
Outcome codes: TRUE for active, FALSE for inactive

[[record]]
query_smiles = "C[N+](C)(C)CC(=O)N/N=C\\c1ccco1"
qualitative_label = "FALSE"

[[record]]
query_smiles = "CC(C)CCSc1nc(-c2ccc(F)cc2)c(C#N)c(N2CCCCC2)n1"
qualitative_label = "FALSE"

[[record]]
query_smiles = "O=c1c2cc(Cl)ccc2oc2ccc(OCCCCCN3CCCCCC3)cc12"
qualitative_label = "FALSE"

[[record]]
query_smiles = "ClCc1c(Cl)c(Cl)c(Cl)c(CCl)c1Cl"
qualitative_label = "FALSE"

[[record]]
query_smiles = "CCCCCCCC/C=C/CCCCCCCC1=NC(C)(C)CN1c1ccccc1"
qualitative_label = "FALSE"

[[record]]
query_smiles = "Fc1ccc(-c2cnc3nonc3n2)c(F)c1"
qualitative_label = "FALSE"

[[record]]
query_smiles = "O=C1/C(=C/c2cc(F)cc(F)c2)Cc2cc(F)cc(F)c21"
qualitative_label = "FALSE"

[[record]]
query_smiles = "COc1ccc(/C=C/c2nc3ccccc3c(=O)n2-c2ccc(C#Cc3ccc(C(C)(C)C)cc3)cc2C)c(OC)c1"
qualitative_label = "FALSE"

[[record]]
query_smiles = "COc1cc(-c2nc(-c3ccc(-c4nc5ccc(F)cc5[nH]4)cc3)no2)cc(OC)c1OC"
qualitative_label = "FALSE"

[[record]]
query_smiles = "CC1CCN(CCCCCOc2ccc3oc4ccc(Cl)cc4c(=O)c3c2)CC1"
qualitative_label = "FALSE"

[[record]]
query_smiles = "CCCCCCCCCCCCCCCC1=NC(C)(C)CN1C(C)C"
qualitative_label = "TRUE"


---

# System: ACHN renal
# test details: NCI-60 one-dose screen, 48 h
# measurement setup: 10 µM unless noted
About 83,000 compounds went through this panel and 20% of them were active in at least one assay; those are over-represented in the sample as a whole. Active and inactive are the calls of the source. Rule for the calls: active = growth percent below 10; inactive = the rest.
Outcome codes: TRUE = active, FALSE = inactive

[[record]]
compound = "Nc1nc(N)c2cc(NCc3ccc(Cl)c(Cl)c3)ccc2n1"
qualitative_label = "TRUE"

[[record]]
compound = "O=C(Nc1ccc([N+](=O)[O-])cc1)c1cc2ccccc2cc1O"
qualitative_label = "TRUE"

[[record]]
compound = "COc1cc(OC)c2sc(-c3ccc(-n4cncc4-c4ccc(OC)c(N)c4)cc3)nc2c1"
qualitative_label = "FALSE"

[[record]]
compound = "CCN(CC)c1cc(C)c(Cc2c(OC)ccc3ccccc23)cc1C"
qualitative_label = "FALSE"

[[record]]
compound = "Cc1ccc2c(C)c3c(ccc4ccccc43)c[n+]2c1"
qualitative_label = "FALSE"

[[record]]
compound = "Fc1ccc(-c2nc(-c3ccc(-c4nc5ccc(F)cc5[nH]4)cc3)no2)cc1"
qualitative_label = "FALSE"

[[record]]
compound = "FC(F)(F)c1cc(-c2nnc3n2N=C(Cl)CS3)cc(C(F)(F)F)c1"
qualitative_label = "FALSE"

[[record]]
compound = "O=C(/C=C/c1ccccc1Br)c1cccc(OCCCCOc2cccc(C(=O)/C=C/c3ccccc3Br)c2)c1"
qualitative_label = "FALSE"

[[record]]
compound = "COc1ccc(-c2cc(-c3cn(-c4cccc(Cl)c4)nc3-c3ccc(OC)cc3)[nH]c(=S)n2)cc1"
qualitative_label = "FALSE"

[[record]]
compound = "CCCCSc1ncnc2c1ncn2C1CCCCO1 (stereo not given)"
qualitative_label = "FALSE"

